System: Plasmodium falciparum
Experiment: GSK_TCMDC: Inhibition of Plasmodium falciparum 3D7 in whole red blood cells, using parasite LDH activity as an index of growth. Test compounds present at 2uM
Assay type: functional
Below, each entry is listed alongside its reported Inhibition.
Quantity name: Inhibition (%)

compound=COCCNCc1cccc(C#Cc2cc3ncnc(Nc4ccc(OCc5cccc(F)c5)c(Cl)c4)c3s2)n1 reported=99
compound=CCOC(=O)C1CCN(CCCNC(=O)/C(=C/C=C/c2cc3cc(Cl)c(Cl)cc3[nH]2)OC)CC1 reported=87
compound=O=C(NCCCN1CCN(c2cccc(Cl)c2)CC1)c1ccc(-c2nc3cc(Cl)c(Cl)cc3[nH]2)cc1 reported=98
compound=CCCC(=O)Nc1ccc(OCCCN(Cc2cccc(C(F)(F)F)c2)c2ccc(C#N)c(C(F)(F)F)c2)cc1 reported=90
compound=c1cncc(-c2cc(N3CCCCC3)nc(-c3ccncc3)n2)c1 reported=99
compound=CCCc1cc(Cc2cnc(N)nc2N)cc(OC)c1OC reported=87
compound=Cc1nc(C)c(-c2ccc(C(=O)c3ccc(Cl)cc3)cc2)c(O)c1Cl reported=98
compound=CCCCc1ccc(C(=O)Nc2ccc3nc(N4CCN(CC)CC4)cc(C)c3c2)cc1 reported=91
compound="Cc1cccc(-n2c(Nc3ccc(C)c(Cl)c3)nc3ccc(S(=O)(=O)NC(C)C(C)C)cc32)c1 (stereo unspecified)" reported=97
compound=CC(C)c1sc(N2CCCCC2)nc1C(=O)Nc1ccc(F)cc1C(F)(F)F.O=C(O)C(F)(F)F reported=100
compound="Cc1cc(OCCCN2CCC(NS(=O)(=O)c3ccc(Cl)c(Cl)c3)C2)c2ccccc2n1 (stereo unspecified)" reported=87
compound=COCCOC(=O)C(=O)c1c(-c2ccccc2)c(-c2ccc(OC)c(OC)c2)c2c3cc(OC)c(OC)cc3ccn12 reported=100
compound=Cc1cc(F)ccc1[C@H]1C[C@H](N2CCOCC2)CCN1C(=O)N(C)[C@@H](C)c1cc(C(F)(F)F)cc(C(F)(F)F)c1.Cl reported=100
compound=O=C(Nc1ccc([N+](=O)[O-])cc1)Nc1nc2ccc(Cl)cc2s1 reported=92
compound=CC(C)NCc1ccc(-c2ccc(NC(=O)c3cccc(Cl)c3)cc2)cc1.O=C(O)C(F)(F)F reported=100
compound=CCc1ccc(C2CCN(CCCCNC(=O)c3ccc(NC(=O)c4ccc(Cl)cc4)cc3)CC2)c(OCC(=O)OC)c1 reported=95
compound=COc1ccc2c(OC)ccc(CNCCCCCCNCc3ccc(OC)c4ccc(OC)cc34)c2c1.CS(=O)(=O)O reported=100
compound="Cc1cc(NC(=O)NCCN2CCC(NS(=O)(=O)c3ccccc3Cl)C2)c2ccccc2n1 (stereo unspecified)" reported=97
compound=CNC(=N)c1ccc(NC(=O)Nc2ccc(C(=N)NC)cc2)cc1.Cl reported=84
compound=Cc1nc2nc(N)nc(N)c2c(C)c1Cc1ccccc1.Cl reported=95
compound=CCOC(=O)C(Oc1ccc2ccccc2c1)C(=O)OCC reported=98
compound=O=C(/C=C/c1ccc(Cl)c(Cl)c1)NCCCCCN1CCCN(C(=O)Nc2ccc(Br)cc2)CC1 reported=99
compound="Cc1cc(OCC2CCCN(c3ncc(C(=O)NC4CC4)cc3Cl)C2)ccc1F (stereo unspecified)" reported=88
compound="O=C(Nc1cccc(C(F)(F)F)c1)N1CCOC(CCN2CCC(c3ccccc3)CC2)(c2ccc(Cl)c(Cl)c2)C1 (stereo unspecified)" reported=87
compound="Cc1cccc2nc(-c3ccc(-c4ccc(CN5CCN(CC6CCCN(C)C6)CC5)cc4)cc3)[nH]c12.O=C(O)C(F)(F)F (stereo unspecified)" reported=100
compound=COc1cccc(CNC(=O)c2ccnc(-c3ccc(CNCCOc4ccccc4)cc3)c2)c1.O=C(O)C(F)(F)F reported=83
compound=O=C(/C=C/c1ccc(Cl)c(Cl)c1)N1CCC(CNCc2cccc3cc[nH]c23)CC1 reported=85
compound=Cc1ccc(CNC(=O)[C@H](CCCN)Nc2nc(Nc3ccccc3)ncc2C)cc1.O=C(O)C(F)(F)F reported=97
compound=Cn1cncc1C(=O)Nc1cccc(-c2ccc(-c3nc4cc(C(F)(F)F)ccc4[nH]3)cc2)c1 reported=97
compound="CN1CCCC1CNS(=O)(=O)c1ccc(C(=O)NCC2CC2)cc1.O=C(O)C(F)(F)F (stereo unspecified)" reported=91
compound=CCNc1cc(C(=O)N[C@@H](Cc2ccccc2)[C@H](O)CNCCCc2ccc(OC)cc2)cc(N2CCCC2=O)c1.O=C(O)C(F)(F)F reported=99
compound=O=C(NC1CCCCC1)N(Cc1cccc(-c2cccc(CNC3CCCC3)c2)c1)C1CCN(Cc2ccccc2)CC1.O=C(O)C(F)(F)F reported=96
compound=COc1ccc2nccc([C@@H](O)CN3CCC(NCc4cc5c(F)ccc(F)c5[nH]4)CC3)c2n1.CS(=O)(=O)O reported=100
compound="CCCCCC(C)N/C(=N/c1ccccc1Br)Nc1ccc(C#N)cc1O (stereo unspecified)" reported=98
compound=COc1ccccc1CN1CCC(NC(=O)c2ccc(-c3cccc(C(F)(F)F)c3)s2)CC1.O=C(O)C(F)(F)F reported=85
compound=O=C(Nc1cccnc1)c1cn(-c2ccccc2)nc1-c1cccs1 reported=99

---

Test system: HepG2
Assay: GSK_TCMDC: Percent inhibition of human HepG2 cell line. Test compounds present at 10uM.
Type: functional
Doc: threshold 10% (exclusive). Items with Inhibition beneath it return Yes; others return No.

compound=COc1c(C2CCN(CCCCNC(=O)c3ccc(NC(=O)c4ccc(C#N)cc4)cc3)CC2)ccc2c1CCCC2 discrete_label=No
compound=O=C(O)C[C@H](NC(=O)CCCNC(=O)c1cccc(-c2ccc(Cl)c(Cl)c2)c1)C(=O)O discrete_label=Yes
compound="CCCCOc1ccc(C(=O)C(CCC(CNC(C)(C)C)C(=O)c2ccc(OCCCC)cc2)CNC(C)(C)C)cc1.Cl (configuration not stated)" discrete_label=No
compound=Cc1cnc(CN(Cc2ccc(-c3ccc(CNCCc4ccc(S(C)(=O)=O)cc4)cn3)cc2)C(=O)c2ccc([N+](=O)[O-])c(C)c2)cn1.O=C(O)C(F)(F)F discrete_label=Yes
compound=Cl.O=C(N[C@@H](Cc1cc(F)cc(F)c1)[C@H](O)CNCc1cccc(C(F)(F)F)c1)c1cc(C2CCCC2)cc(N2CCCC2=O)c1 discrete_label=No
compound=CCOCCCn1c(=N)c(C(=O)NCc2ccc(OC)cc2)cc2c(=O)n3cccc(C)c3nc21 discrete_label=No
compound=CN(C)c1ccc2c(c1)Sc1cc(N(C)C)ccc1N2C(=O)CCCC(=O)[O-].[Na+] discrete_label=Yes
compound="CNC(=O)C1Cc2c([nH]c3cc(Cl)ccc23)C2(CCN(CCc3ccccc3)CC2)N1 (configuration not stated)" discrete_label=No
compound="COc1ccccc1C1CCN(C2CCC(NC(=O)c3cc4ccccc4[nH]3)CC2)CC1 (configuration not stated)" discrete_label=No
compound=CC(C)Nc1cc(C(=O)N[C@@H](Cc2ccccc2)[C@H](O)CNC(C)(C)c2cccc(C(F)(F)F)c2)cc(N2CCCCS2(=O)=O)c1.O=CO discrete_label=Yes
compound=Cc1ccc2[nH]c3c(NCCCN4CCOCC4)ncnc3c2c1 discrete_label=Yes
compound=CCC(C)(C)c1ccc(Oc2ccc(NC(=O)Nc3ccc(Cl)c(Cl)c3)cc2)cc1 discrete_label=No
compound="Cc1ccc(/C=C/C(=O)NC2CCC(N3CCC(c4ccccc4C)CC3)CC2)cc1F (configuration not stated)" discrete_label=No
compound=CCc1cc(N2CCN(c3ccccc3F)CC2)nc(SCc2ccc(C(=O)NC3CC3)o2)n1 discrete_label=Yes
compound="O=C(Nc1cccc(C(F)(F)F)c1)c1ccc(S(=O)(=O)NC2CCN(CC3CCCCC3)C2)cc1.O=C(O)C(F)(F)F (configuration not stated)" discrete_label=No
compound="CN(C)c1ccc(-c2cscc2C(=O)NC2CCCN(Cc3cccnc3)C2)cc1.O=C(O)C(F)(F)F (configuration not stated)" discrete_label=Yes
compound="CN(C)CC(O)C(c1ccccc1)c1cccc(Br)c1.Cl (configuration not stated)" discrete_label=No

---

Below, each entry is listed alongside its reported Inhibition.
System: Plasmodium falciparum
Assay: GSK_TCMDC: Inhibition of Plasmodium falciparum Dd2 in whole red blood cells, using parasite LDH activity as an index of growth. Test compounds present at 2uM
Assay type: functional
Quantity name: Inhibition (%)

compound="OC(CNc1ccnc(Nc2cccc(Cl)c2)n1)c1ccc(C(F)(F)F)cc1 (centres undefined)" unit_label=% reported=61
compound="COc1ccc(C2(CNCC(O)c3cccc([N+](=O)[O-])c3)CCCC2)cc1OC (centres undefined)" unit_label=% reported=85
compound=CC1(C)C=C(c2ccncc2)c2cc(Cl)ccc2O1.Cl unit_label=% reported=22
compound=O=C(Nc1ccc(Oc2ccccc2)cc1)N1CCC(CCN2CCC(c3c[nH]c4ccccc34)CC2)CC1 unit_label=% reported=36
compound=NCc1ccc(CNCc2ccc(-c3ccc(-c4nc5cc(F)ccc5[nH]4)cc3)cc2)cc1.O=C(O)C(F)(F)F unit_label=% reported=99
compound=CCc1cc2c3c(N)nc(N)nc3ccc2n1CC unit_label=% reported=0
compound=O=C(Nc1cccc(CN2CCCN(Cc3ccc(O)cc3)CC2)c1)c1cccc(Cl)c1.O=C(O)C(F)(F)F unit_label=% reported=41
compound=CCN(CC)CCN(Cc1ccc(-c2ccc(C(F)(F)F)cc2)cc1)C(=O)Cn1c(CCc2cccc(F)c2F)cc(=O)cc1-c1ccccc1 unit_label=% reported=64
compound=O=C(/C=C/c1ccc(Cl)c(Cl)c1)NCCCCCN1CCC(NC(=O)Nc2cc(Cl)cc(Cl)c2)CC1 unit_label=% reported=5
